# measurement-notes: Volume of distribution at steady state in SCID mouse bearing advanced-stage human Hs746T cells at 20 mg/kg, iv administered as single dose after 1 to 72 hrs by liquid chromatography-tandem mass spectrometry
# Assay type: ADME, organism-based
# study-conditions: in vivo, read-out: Vdss
outcome-measure: Vd (L/kg)
Use L/kg as the unit, but write only the number.

Request: Look at this compound and give its reported Vd. `O=C(NCCN1CCOCC1)Nc1nc2ccc(Sc3nnc4ccc(-c5ccc(F)cc5)nn34)cc2s1`
Result: 4.2

====

# measurement-notes: Terminal half life in dog at 3 mg/kg, iv
# Type: ADME, organism-based, Canis lupus familiaris
# study-conditions: in vivo, read-out: beta t1/2 (converted)
outcome-measure: half-life (h)
Use h as the unit, but write only the number.

Request: Look at this compound and give its reported half-life. `O=C(NCCN1CCOCC1)Nc1nc2ccc(Sc3nnc4ccc(-c5ccc(F)cc5)nn34)cc2s1`
Result: 3.8

====

The entries below come with measured log10(IC50) values attached.
# system-tested: Hepatocyte growth factor receptor (Homo sapiens, UniProt P08581)
# Sequence (P08581 whole entry): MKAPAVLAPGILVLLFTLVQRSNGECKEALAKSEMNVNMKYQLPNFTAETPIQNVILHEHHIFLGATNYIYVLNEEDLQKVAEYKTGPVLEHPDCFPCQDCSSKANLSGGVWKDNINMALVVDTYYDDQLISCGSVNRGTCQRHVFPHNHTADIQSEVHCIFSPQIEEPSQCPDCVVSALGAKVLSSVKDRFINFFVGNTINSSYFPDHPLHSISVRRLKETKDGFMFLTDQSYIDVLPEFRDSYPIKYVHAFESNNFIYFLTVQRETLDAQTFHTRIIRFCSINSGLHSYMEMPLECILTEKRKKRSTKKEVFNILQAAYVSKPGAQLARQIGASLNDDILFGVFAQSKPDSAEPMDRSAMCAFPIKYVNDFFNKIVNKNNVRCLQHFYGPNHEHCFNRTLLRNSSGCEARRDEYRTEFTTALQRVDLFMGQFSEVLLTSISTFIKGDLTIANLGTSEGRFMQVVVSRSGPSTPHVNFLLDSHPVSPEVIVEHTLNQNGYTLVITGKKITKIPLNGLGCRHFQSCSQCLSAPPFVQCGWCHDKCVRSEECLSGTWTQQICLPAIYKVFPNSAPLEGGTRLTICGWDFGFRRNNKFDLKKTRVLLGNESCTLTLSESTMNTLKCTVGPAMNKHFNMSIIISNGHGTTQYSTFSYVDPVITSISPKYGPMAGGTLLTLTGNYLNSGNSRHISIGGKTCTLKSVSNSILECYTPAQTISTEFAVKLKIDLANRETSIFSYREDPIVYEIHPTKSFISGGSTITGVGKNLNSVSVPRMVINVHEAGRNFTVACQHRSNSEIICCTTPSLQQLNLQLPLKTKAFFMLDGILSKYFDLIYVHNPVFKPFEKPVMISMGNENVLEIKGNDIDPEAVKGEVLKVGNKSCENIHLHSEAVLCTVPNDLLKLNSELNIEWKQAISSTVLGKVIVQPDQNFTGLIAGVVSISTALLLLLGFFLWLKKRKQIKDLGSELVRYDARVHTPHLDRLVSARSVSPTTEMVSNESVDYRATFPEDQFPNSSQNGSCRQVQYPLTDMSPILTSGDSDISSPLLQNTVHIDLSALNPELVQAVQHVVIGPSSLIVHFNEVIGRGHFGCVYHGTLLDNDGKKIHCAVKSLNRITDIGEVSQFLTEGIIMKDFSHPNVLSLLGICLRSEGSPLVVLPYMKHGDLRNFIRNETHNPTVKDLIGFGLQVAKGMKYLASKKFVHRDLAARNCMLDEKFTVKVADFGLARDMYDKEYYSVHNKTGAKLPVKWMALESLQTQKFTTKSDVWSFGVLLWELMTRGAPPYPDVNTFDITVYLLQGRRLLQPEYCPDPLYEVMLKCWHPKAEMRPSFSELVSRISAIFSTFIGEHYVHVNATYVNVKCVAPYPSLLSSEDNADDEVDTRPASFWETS
# measurement-notes: Inhibition of phosphorylated MET in human MKN45 cells assessed as reduction in pMET Y1230/1234/1235 level incubated for 1 hr by ELISA
# Assay type: cell-based
# values: log10(IC50), units nM

{"cpd-smiles": "O=C(CC1CC1)Nc1nc2ccc(Sc3nnc4ccc(-c5ccc(F)cc5)nn34)cc2s1", "log10(IC50)": 1.11}
{"cpd-smiles": "CCN1CCC(CCNC(=O)Nc2nc3ccc(Sc4nnc5ccc(-c6cccs6)nn45)cc3s2)CC1", "log10(IC50)": 1.46}
{"cpd-smiles": "O=C(NCCN1CCOCC1)Nc1nc2ccc(Sc3nnc4ccc(-c5ccc(F)cc5)nn34)cc2s1", "log10(IC50)": 0.70}
{"cpd-smiles": "CCN(CC)CCNC(=O)Nc1nc2ccc(Sc3nnc4ccc(-c5ccc(F)cc5)nn34)cc2s1", "log10(IC50)": 1.00}

Request: Look at this compound and give its reported log10(IC50). `Nc1nc2ccc(Sc3nnc4ccc(-c5ccc(F)cc5)nn34)cc2s1`
Result: 1.63

Request: Look at this compound and give its reported log10(IC50). `O=C(Nc1nc2ccc(Sc3nnc4ccc(-c5ccc(F)cc5)nn34)cc2s1)OCCN1CCOCC1`
Result: 1.40

Request: Look at this compound and give its reported log10(IC50). `O=C(CCCN1CCOCC1)Nc1nc2ccc(Sc3nnc4ccc(-c5ccc(F)cc5)nn34)cc2s1`
Result: 0.30

Request: Look at this compound and give its reported log10(IC50). `Fc1ccc(-c2ccc3nnc(Sc4ccc5nc(NCCN6CCOCC6)sc5c4)n3n2)cc1`
Result: 1.11

====

# measurement-notes: Volume of distribution at steady state in rat at 5 mg/kg, iv
# Type: ADME, organism-based
# study-conditions: in vivo, read-out: Vdss
outcome-measure: Vd (L/kg)
Use L/kg as the unit, but write only the number.

Request: Look at this molecule and give its reported Vd. `O=C(NCCN1CCOCC1)Nc1nc2ccc(Sc3nnc4ccc(-c5ccc(F)cc5)nn34)cc2s1`
Result: 2.9

====

# system-tested: Hepatocyte growth factor receptor (Homo sapiens, UniProt P08581)
# measurement-notes: Inhibition of wild type phosphorylated MET (unknown origin) pre-incubated for 30 mins before biotinylated poly(glutamate-alanine-tyrosine) peptide addition and measured after 5 mins by HTRF assay
outcome-measure: IC50 (nM)
Use nM as the unit, but write only the number.

Past entries and their recorded results:
{"cpd-smiles": "Fc1ccc(-c2ccc3nnc(Sc4ccc5nc(NCCN6CCOCC6)sc5c4)n3n2)cc1", "outcome-measure": "IC50", "meas-value": 20}
{"cpd-smiles": "CCCCOc1ccc2nnc(Sc3ccc4nc(NC(=O)NCCN5CCOCC5)sc4c3)n2n1", "outcome-measure": "IC50", "meas-value": 5}
{"cpd-smiles": "O=C(CC1CC1)Nc1nc2ccc(Sc3nnc4ccc(-c5ccc(F)cc5)nn34)cc2s1", "outcome-measure": "IC50", "meas-value": 4}
{"cpd-smiles": "O=C(NCCN1CCOCC1)Nc1nc2ccc(Sc3nnc4cccnn34)cc2s1", "outcome-measure": "IC50", "meas-value": 29}
{"cpd-smiles": "O=C(NCCN1CCOCC1)Nc1nc2ccc(Sc3nnc4ccc(Oc5cccc(F)c5)nn34)cc2s1", "outcome-measure": "IC50", "meas-value": 3}

Request: Look at this compound and give its reported IC50. `CCN(CC)CCNC(=O)Nc1nc2ccc(Sc3nnc4ccc(-c5ccc(F)cc5)nn34)cc2s1`
Result: 3

Request: Look at this compound and give its reported IC50. `O=C(NCCN1CCOCC1)Nc1nc2ccc(Sc3nnc4ccc(OC5CCCCC5)nn34)cc2s1`
Result: 2

Request: Look at this compound and give its reported IC50. `O=C(NCCN1CCOCC1)Nc1nc2ccc(Sc3nnc4ccc(NC5CCCCC5)nn34)cc2s1`
Result: 1

====

# measurement-notes: Volume of distribution at steady state in dog at 3 mg/kg, iv
# Format: ADME, organism-based, Canis lupus familiaris
# study-conditions: in vivo, read-out: Vdss
outcome-measure: Vd

Request: Look at this compound and give its reported Vd. `O=C(NCCN1CCOCC1)Nc1nc2ccc(Sc3nnc4ccc(-c5ccc(F)cc5)nn34)cc2s1`
Result: 1.3 L/kg

====

# measurement-notes: Oral bioavailability in mouse
# Format: ADME, organism-based
# study-conditions: in vivo
The entries below come with measured bioavailability values attached.
Use % as the unit, but write only the number.

Past entries and their recorded results:
{"compound": "O=C(NCCN1CCOCC1)Nc1nc2ccc(Sc3nnc4ccc(OC5CCCC5)nn34)cc2s1", "u": "%", "bioavailability": 12}
{"compound": "O=C(NCCN1CCOCC1)Nc1nc2ccc(Sc3nnc4ccc(-c5ccc(F)cc5)nn34)cc2s1 [SAR-125844]", "u": "%", "bioavailability": 2}

# next compound below
Request: Look at this compound and give its reported bioavailability. `O=C(NCCN1CCOCC1)Nc1nc2ccc(Sc3nnc4ccc(OC5CCCCC5)nn34)cc2s1`
Result: 17

====

The entries below come with measured pIC50 values attached.
# system-tested: Hepatocyte growth factor receptor (Homo sapiens, UniProt P08581, Y1230H)
# Sequence (P08581 25-1390 Y1230H limits assumed): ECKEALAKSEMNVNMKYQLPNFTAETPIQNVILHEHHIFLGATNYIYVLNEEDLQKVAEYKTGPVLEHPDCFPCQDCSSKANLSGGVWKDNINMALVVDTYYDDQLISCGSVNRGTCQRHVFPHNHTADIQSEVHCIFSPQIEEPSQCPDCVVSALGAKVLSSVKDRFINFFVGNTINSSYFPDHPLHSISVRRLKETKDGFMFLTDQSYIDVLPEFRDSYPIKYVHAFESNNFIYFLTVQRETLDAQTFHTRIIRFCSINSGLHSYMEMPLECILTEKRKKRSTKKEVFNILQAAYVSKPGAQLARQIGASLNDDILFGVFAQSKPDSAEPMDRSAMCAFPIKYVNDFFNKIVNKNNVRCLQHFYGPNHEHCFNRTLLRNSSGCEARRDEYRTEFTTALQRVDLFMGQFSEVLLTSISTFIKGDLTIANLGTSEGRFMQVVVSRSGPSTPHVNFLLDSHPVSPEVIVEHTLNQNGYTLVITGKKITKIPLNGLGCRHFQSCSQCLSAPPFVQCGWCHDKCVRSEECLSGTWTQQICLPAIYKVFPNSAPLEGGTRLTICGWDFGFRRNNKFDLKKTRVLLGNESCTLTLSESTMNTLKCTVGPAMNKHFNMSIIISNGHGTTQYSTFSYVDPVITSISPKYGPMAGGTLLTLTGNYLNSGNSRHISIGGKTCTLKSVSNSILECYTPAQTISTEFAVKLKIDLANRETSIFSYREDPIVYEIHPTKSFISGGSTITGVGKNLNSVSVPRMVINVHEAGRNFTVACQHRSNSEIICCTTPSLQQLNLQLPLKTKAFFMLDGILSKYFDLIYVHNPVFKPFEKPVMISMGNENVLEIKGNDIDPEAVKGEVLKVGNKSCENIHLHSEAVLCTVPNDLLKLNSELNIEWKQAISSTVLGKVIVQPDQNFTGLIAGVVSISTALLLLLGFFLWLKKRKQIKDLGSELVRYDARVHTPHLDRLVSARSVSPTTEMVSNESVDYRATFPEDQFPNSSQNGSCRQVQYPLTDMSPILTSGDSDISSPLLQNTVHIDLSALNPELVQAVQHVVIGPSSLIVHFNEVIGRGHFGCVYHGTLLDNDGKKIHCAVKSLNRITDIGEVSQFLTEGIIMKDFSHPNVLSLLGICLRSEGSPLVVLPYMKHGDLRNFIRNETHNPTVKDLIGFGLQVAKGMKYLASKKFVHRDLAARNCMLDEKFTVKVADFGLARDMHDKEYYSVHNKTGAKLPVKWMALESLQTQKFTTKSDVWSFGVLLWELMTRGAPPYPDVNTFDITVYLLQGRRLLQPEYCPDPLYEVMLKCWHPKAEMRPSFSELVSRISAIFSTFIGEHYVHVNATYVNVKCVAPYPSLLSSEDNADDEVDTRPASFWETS
# measurement-notes: Inhibition of phosphorylated MET Y1230H mutant (unknown origin) pre-incubated for 30 mins before biotinylated poly(glutamate-alanine-tyrosine) peptide addition and measured after 5 mins by HTRF assay
pIC50: −log10 of the molar value.

Past entries and their recorded results:
{"cpd-smiles": "O=C(Nc1nc2ccc(Sc3nnc4ccc(-c5ccc(F)cc5)nn34)cc2s1)OCCN1CCOCC1", "pIC50": "< 5.00"}
{"cpd-smiles": "COC(=O)Nc1nc2ccc(Sc3nnc4ccc(-c5ccc(F)cc5)nn34)cc2s1", "pIC50": "< 5.00"}
{"cpd-smiles": "O=C(NCCN1CCOCC1)Nc1nc2ccc(Sc3nnc4ccc(Oc5ccccc5)nn34)cc2s1", "pIC50": 6.76}

# next molecule below
Request: What is its pIC50 for Hepatocyte growth factor receptor (Homo sapiens, UniProt P08581, Y1230H)? Entry: `CCNc1nc2ccc(Sc3nnc4ccc(-c5ccc(F)cc5)nn34)cc2s1`
Result: < 5.00

====

The entries below come with measured Papp A→B at 20 µM values attached.
# measurement-notes: Apparent permeability from apical to basolateral side in human Caco2/TC7 cells at 20 uM by liquid chromatography-tandem mass spectrometry
# study-conditions: Caco-2
Use ×10⁻⁶ cm/s as the unit, but write only the number.

Past entries and their recorded results:
{"molecule": "O=C(NCCN1CCOCC1)Nc1nc2ccc(Sc3nnc4ccc(OC5CCCCCC5)nn34)cc2s1", "Papp A→B at 20 µM (×10⁻⁶ cm/s)": 2}
{"molecule": "O=C(NCCN1CCOCC1)Nc1nc2ccc(Sc3nnc4ccc(OC5CCCC5)nn34)cc2s1", "Papp A→B at 20 µM (×10⁻⁶ cm/s)": 2.6}

Request: Look at this molecule and give its reported Papp A→B at 20 µM. `O=C(NCCN1CCOCC1)Nc1nc2ccc(Sc3nnc4ccc(OC5CCCCC5)nn34)cc2s1`
Result: 9.8

Request: Look at this molecule and give its reported Papp A→B at 20 µM. `CCCCOc1ccc2nnc(Sc3ccc4nc(NC(=O)NCCN5CCOCC5)sc4c3)n2n1`
Result: 0.7

Request: Look at this molecule and give its reported Papp A→B at 20 µM. O=C(NCCN1CCOCC1)Nc1nc2ccc(Sc3nnc4ccc(-c5ccc(F)cc5)nn34)cc2s1 [SAR-125844]
Result: 0.9

====

# measurement-notes: Terminal half life in mouse at 1 mg/kg, iv […]
# Type: ADME, organism-based
# study-conditions: in vivo, read-out: beta t1/2 (converted)
outcome-measure: half-life (h)
Use h as the unit, but write only the number.

Request: Look at this molecule and give its reported half-life. `O=C(NCCN1CCOCC1)Nc1nc2ccc(Sc3nnc4ccc(-c5ccc(F)cc5)nn34)cc2s1`
Result: 4.8

====

The entries below come with measured pIC50 values attached.
# system-tested: Hepatocyte growth factor receptor (Homo sapiens, UniProt P08581, L1195V)
# Sequence (P08581 25-1390 L1195V limits assumed): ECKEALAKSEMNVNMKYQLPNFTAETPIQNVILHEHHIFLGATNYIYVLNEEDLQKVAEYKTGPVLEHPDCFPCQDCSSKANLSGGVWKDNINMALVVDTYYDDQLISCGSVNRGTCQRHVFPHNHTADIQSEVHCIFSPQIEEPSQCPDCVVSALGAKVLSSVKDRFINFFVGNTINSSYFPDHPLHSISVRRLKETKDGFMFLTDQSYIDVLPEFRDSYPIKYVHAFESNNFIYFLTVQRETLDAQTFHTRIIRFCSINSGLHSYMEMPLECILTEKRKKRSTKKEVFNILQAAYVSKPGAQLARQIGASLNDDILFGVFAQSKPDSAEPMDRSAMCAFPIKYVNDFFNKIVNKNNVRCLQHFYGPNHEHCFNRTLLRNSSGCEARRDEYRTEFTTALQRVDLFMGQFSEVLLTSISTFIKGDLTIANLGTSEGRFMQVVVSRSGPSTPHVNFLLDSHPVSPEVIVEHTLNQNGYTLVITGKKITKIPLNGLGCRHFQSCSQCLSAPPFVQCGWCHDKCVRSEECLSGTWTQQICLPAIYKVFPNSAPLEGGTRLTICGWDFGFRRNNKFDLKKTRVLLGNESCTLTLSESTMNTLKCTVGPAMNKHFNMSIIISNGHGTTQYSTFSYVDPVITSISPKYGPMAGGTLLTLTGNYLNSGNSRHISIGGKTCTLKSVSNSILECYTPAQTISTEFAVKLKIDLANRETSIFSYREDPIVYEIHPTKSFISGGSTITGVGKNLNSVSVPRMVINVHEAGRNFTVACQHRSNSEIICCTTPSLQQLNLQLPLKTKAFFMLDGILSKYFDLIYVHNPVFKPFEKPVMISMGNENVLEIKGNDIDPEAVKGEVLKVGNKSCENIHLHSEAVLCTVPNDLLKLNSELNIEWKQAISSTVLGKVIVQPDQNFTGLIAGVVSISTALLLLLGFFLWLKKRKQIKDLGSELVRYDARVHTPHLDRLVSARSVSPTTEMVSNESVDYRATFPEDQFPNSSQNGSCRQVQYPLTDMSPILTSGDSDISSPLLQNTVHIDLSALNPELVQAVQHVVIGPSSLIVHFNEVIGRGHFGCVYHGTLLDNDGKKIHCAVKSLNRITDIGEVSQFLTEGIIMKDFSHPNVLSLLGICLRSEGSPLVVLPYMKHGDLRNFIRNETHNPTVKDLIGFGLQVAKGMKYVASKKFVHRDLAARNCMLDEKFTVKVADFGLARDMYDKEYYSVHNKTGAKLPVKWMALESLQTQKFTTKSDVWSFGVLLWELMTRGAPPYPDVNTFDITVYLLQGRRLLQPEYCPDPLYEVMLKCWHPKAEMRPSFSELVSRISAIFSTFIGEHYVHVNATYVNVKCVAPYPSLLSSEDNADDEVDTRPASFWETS
# measurement-notes: Inhibition of phosphorylated MET L1195V mutant (unknown origin) pre-incubated for 30 mins before biotinylated poly(glutamate-alanine-tyrosine) peptide addition and measured after 5 mins by HTRF assay
Quick note: pIC50 means taking -log10 of the concentration in moles per liter.

{"cpd-smiles": "O=C(NCCN1CCOCC1)Nc1nc2ccc(Sc3nnc4ccc(-c5ccc(F)cc5)nn34)cc2s1", "pIC50": 7.19}
{"cpd-smiles": "Nc1nc2ccc(Sc3nnc4ccc(-c5ccc(F)cc5)nn34)cc2s1", "pIC50": 5.05}
{"cpd-smiles": "O=C(Nc1nc2ccc(Sc3nnc4ccc(-c5ccc(F)cc5)nn34)cc2s1)C1CC1", "pIC50": 7.21}

# next compound below
Request: Look at this compound and give its reported pIC50. `CCN(CC)CCNC(=O)Nc1nc2ccc(Sc3nnc4ccc(-c5ccc(F)cc5)nn34)cc2s1`
Result: 6.83
